target: Inhibitor of nuclear factor kappa-B kinase subunit beta (Homo sapiens, UniProt O14920); assay: Inhibition of IKK2 (unknown origin)
Sequence (O14920 whole entry): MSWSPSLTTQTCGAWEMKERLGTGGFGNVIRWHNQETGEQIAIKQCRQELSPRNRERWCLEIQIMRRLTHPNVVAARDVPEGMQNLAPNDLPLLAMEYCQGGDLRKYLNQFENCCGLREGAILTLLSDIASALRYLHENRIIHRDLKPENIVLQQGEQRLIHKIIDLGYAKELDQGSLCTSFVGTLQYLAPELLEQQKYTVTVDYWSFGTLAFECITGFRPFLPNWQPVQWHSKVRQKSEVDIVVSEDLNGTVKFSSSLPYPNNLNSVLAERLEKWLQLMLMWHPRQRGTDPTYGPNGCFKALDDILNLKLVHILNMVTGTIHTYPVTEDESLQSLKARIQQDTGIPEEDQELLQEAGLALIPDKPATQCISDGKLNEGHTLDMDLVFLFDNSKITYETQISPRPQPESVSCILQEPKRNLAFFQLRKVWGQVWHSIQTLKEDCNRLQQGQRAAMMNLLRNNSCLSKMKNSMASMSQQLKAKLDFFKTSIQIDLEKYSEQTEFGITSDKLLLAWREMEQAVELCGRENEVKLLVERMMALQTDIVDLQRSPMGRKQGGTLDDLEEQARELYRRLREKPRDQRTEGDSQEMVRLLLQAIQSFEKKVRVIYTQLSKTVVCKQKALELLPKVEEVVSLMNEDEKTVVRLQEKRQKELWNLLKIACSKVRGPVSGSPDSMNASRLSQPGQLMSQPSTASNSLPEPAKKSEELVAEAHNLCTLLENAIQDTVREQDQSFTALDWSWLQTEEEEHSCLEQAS
ENDPOINT NAME: IC50

Ask: Tell me measured IC50 for `CS(=O)(=O)Nc1cc(-c2ccncc2)cnc1Cl` please.
Reply: > 10 µM

====

biological target: Rho-associated protein kinase 1 (Homo sapiens, UniProt Q13464)
Sequence (Q13464 whole entry): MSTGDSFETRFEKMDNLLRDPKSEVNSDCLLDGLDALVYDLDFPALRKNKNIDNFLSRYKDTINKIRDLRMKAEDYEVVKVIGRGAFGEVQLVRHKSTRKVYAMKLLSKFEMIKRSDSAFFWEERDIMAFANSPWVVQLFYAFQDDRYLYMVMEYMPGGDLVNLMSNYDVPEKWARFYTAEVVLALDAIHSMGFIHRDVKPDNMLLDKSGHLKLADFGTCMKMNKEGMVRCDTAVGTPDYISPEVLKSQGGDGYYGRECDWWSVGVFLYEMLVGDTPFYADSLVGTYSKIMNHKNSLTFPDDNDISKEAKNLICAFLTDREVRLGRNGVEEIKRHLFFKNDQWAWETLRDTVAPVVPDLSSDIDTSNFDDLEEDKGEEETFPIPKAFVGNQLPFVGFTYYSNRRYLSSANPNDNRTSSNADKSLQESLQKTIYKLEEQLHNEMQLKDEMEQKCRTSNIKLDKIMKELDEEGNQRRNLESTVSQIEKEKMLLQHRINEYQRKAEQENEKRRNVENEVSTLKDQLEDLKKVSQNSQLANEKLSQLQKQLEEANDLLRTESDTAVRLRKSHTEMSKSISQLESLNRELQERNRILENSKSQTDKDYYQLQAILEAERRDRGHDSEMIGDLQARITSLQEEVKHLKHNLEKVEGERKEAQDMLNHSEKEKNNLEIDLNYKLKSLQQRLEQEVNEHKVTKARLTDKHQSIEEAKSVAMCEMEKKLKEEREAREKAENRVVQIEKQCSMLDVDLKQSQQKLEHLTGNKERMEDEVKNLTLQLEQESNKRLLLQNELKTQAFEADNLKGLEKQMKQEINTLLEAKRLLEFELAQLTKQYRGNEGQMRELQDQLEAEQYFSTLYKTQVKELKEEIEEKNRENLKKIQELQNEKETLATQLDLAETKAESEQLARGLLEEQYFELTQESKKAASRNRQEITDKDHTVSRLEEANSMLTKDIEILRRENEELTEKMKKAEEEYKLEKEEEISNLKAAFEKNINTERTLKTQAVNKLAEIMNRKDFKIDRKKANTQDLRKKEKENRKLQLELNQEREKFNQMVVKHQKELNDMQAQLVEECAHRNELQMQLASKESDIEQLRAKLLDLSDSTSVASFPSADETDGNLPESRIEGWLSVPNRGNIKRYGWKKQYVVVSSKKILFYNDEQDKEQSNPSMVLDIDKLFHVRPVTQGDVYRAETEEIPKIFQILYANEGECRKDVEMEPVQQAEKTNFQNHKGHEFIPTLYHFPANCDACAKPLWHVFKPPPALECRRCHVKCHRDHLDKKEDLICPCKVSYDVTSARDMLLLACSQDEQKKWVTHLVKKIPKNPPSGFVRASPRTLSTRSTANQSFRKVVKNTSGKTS
ENDPOINT NAME: IC50

Ask: Report IC50 for `CS(=O)(=O)Nc1cc(-c2ccncc2)cnc1Cl`
Reply: > 10 µM

Taken from ChEMBL document CHEMBL4382269.
